List of melting point values.

molecule: Cc1ccsc1C(=O)Cc1ccccc1[N+](=O)[O-]
assay_value: 85 to 86.5 °C

Consider the additional molecule presented here.
Query: melting point; subject: N#Cc1sc2c(Cl)cccc2c1Cl
124 to 128 °C

====

List of melting point values.

compound: C=C(C)Cc1c(C)c(OC(C)=O)c(C)c(C)c1O
assay_value: 109 to 110 °C
--
compound: O=c1c2c(Cc3cccc(C(F)(F)F)c3)n[nH]c2c2cccnc2n1-c1cccc(OC(F)(F)F)c1
assay_value: 206 to 209 °C
--
compound: COC(=O)[C@H](CCCC(OC)OC)N1C(=O)c2ccccc2C1=O
assay_value: 69 to 70 °C
--
compound: CC(=S)Nc1ccc(-c2nc3ccccc3s2)cc1
assay_value: 222 to 223 °C
--
compound: O=S(=O)(Nc1cc(Br)nc(Br)c1)c1cccc(Cl)c1
assay_value: 187 to 189 °C

Query: melting point; subject: CC1CCc2c(-c3ccc([N+](=O)[O-])cc3)ccc3c(=O)c(C(=O)O)cn1c23 (centres undefined)
> 300 °C

How about this compound: O=c1ccsn1C(O)C(Cl)(Cl)Cl (centres undefined)
117 to 118 °C

How about this compound: Cc1c(C(=O)Nc2ccc(N3CCNCC3)c(C#N)c2)cnn1-c1ccc(Cl)cc1
184 °C

How about this compound: Cc1ccc(C)c(C(=O)c2ccccc2)c1O
111 to 114 °C

How about this compound: CN1CCC(=C2c3ccccc3COc3cc(Cl)ccc32)CC1
113 to 116 °C

How about this compound: O=C(O)c1sc(C(c2ccc(Cl)cc2)c2c(Cl)cc(-n3ncc(=O)[nH]c3=O)cc2Cl)nc1-c1ccccc1 (centres undefined)
206 °C

How about this compound: COC(=O)[C@@H]1C[C@H](OS(=O)(=O)c2ccc(Br)cc2)C(=O)[C@@H]2[C@@]3(C)C[C@@H](c4ccoc4)OC(=O)[C@H]3CC[C@]21C
165 to 166 °C
